Assay: Human HepG2 cell viability assay in 384 well format
Format: toxicity, cell-based
Design: dose 125 nL, time 70.5 hour; concentration not given beside the values
Condition summary: HepG2 cells, read-out: Inhibition
Measured endpoint: cytotoxicity at 70.5 h (%)

CCOC(=O)c1cc2n(n1)CCCO2	22.1
CC(=O)Nc1nc(C(=O)NCCOc2cccc(F)c2)cs1	-17.7
c1ccc(O[C@H]2CO[C@@]3(CCN(Cc4ccc5c(c4)OCO5)C3)C2)nc1	0.478
CC(C)c1cnc(CN(C)C2CCN(CCS(C)(=O)=O)C2)o1 (configuration not stated)	2.71
Cn1c(=O)n(C)c2cc(C3SCC(=O)Nc4ccsc43)ccc21 (configuration not stated)	38.6
O=C1C(CS(=O)(=O)Nc2ccccc2)=NC(=O)n2cccc21	-7.6
CC(C(=O)Nc1ccnn1C(C)C)N1CCc2nn(C)c(=O)cc2C1 (configuration not stated)	4.22
COc1ccc(CC(=O)N2CCCC(n3nc(C)cc3C)C2)cc1 (configuration not stated)	-3.95
CCOC1CCN(C(=O)NCc2ccc(CN3CCOCC3)cc2)CC1	-9.89
Cc1cnn(CC2CCCN2c2ncnc3ccsc23)c1 (configuration not stated)	5.5
Cc1ccc(-c2nc(C(=O)N3CCOCC3)cs2)c(C)c1	-12.3
Cc1nc(CCCN2CCOCC2)n(Cc2ccc(F)cc2)n1	-12.5
